Target or system UniProt:P49840; recorded quantity pIC50.
Sequence (P49840 whole entry): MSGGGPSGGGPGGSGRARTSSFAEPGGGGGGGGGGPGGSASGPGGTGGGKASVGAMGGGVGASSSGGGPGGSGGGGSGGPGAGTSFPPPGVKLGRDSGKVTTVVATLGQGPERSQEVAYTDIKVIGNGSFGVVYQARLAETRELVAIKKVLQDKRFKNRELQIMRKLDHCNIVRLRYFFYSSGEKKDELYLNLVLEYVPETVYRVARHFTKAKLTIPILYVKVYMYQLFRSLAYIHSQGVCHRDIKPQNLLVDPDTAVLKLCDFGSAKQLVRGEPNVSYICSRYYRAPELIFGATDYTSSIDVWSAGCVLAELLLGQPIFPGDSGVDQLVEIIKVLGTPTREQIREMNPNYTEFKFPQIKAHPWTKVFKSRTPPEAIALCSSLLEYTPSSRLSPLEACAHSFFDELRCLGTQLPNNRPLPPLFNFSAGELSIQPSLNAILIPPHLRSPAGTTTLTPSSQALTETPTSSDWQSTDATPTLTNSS
FYI, pIC50 means -log10 of a concentration in mol per litre.

[in] Identify measured pIC50 associated with `COc1cc(Nc2cc(Oc3ccc(NC(=O)Nc4cc(C(C)(C)C)cc(NS(C)(=O)=O)c4OC)c4ccccc34)ccn2)ccc1C(=O)NCCCN1CCOCC1`
[out] 5.35

[in] Identify measured pIC50 associated with `COc1cc(Nc2cc(Oc3ccc(NC(=O)Nc4cc(C(C)(C)C)cc(NS(C)(=O)=O)c4OC)c4ccccc34)ccn2)ccc1C(=O)NCCC1CCN(C)CC1`
[out] 5.66

[in] Identify measured pIC50 associated with COc1cc(Nc2cc(Oc3ccc(NC(=O)Nc4cc(C(C)(C)C)cc(NS(C)(=O)=O)c4OC)c4ccccc34)ccn2)ccc1C(=O)NCCN1CCN(CCO)CC1 [17(z)]
[out] 5.54

[in] Identify measured pIC50 associated with COc1cc(Nc2cc(Oc3ccc(NC(=O)Nc4cc(C(C)(C)C)cc(NS(C)(=O)=O)c4OC)c4ccccc34)ccn2)ccc1C(=O)NCCCCC(=O)O [17(s)]
[out] 6.40

[in] Identify measured pIC50 associated with `COc1cc(Nc2cc(Oc3ccc(NC(=O)Nc4cc(C(C)(C)C)cc(NS(C)(=O)=O)c4OC)c4ccccc34)ccn2)ccc1C(=O)NCCN(C)CCO`
[out] 5.52

[in] Identify measured pIC50 associated with `COc1cc(Nc2cc(Oc3ccc(NC(=O)Nc4cc(C(C)(C)C)cc(NS(C)(=O)=O)c4OC)c4ccccc34)ccn2)ccc1C(=O)NCCCN1CCN(C)CC1`
[out] 5.53
